Test system: Mycobacterium tuberculosis
Assay: Antitubercular activity against Mycobacterium tuberculosis H37Rv INH-R1 harboring katG Y155 mutant after 5 days
Format: functional, organism-based
pIC50: −log10 of the molar value.
Would you mind labelling by pIC50? At or over 6 is Criterion met, under is Criterion not met.

Solved entries:
# molecule, label
data = [
    ("COc1ccc(/C=C/C(C)=N/Nc2nc(-c3ccc(OC)c(OC)c3)cs2)cc1OC", "Criterion not met"),
    ("C[C@H]1COc2c(N3CCN(C)CC3)c(F)cc3c(=O)c(C(=O)O)cn1c23.C[C@H]1COc2c(N3CCN(C)CC3)c(F)cc3c(=O)c(C(=O)O)cn1c23.O [LEVOFLOXACIN]", "Criterion met"),
    ("COc1ccc(/C=C/C(C)=N/Nc2nc(-c3c(OC)cccc3OC)cs2)cc1OC", "Criterion not met"),
    ("CO[C@H]1/C=C/O[C@@]2(C)Oc3c(C)c(O)c4c(O)c(c(/C=N/N5CCN(C)CC5)c(O)c4c3C2=O)NC(=O)/C(C)=C\\C=C\\[C@H](C)[C@H](O)[C@@H](C)[C@@H](O)[C@@H](C)[C@H](OC(C)=O)[C@@H]1C [RIFAMPIN]", "Criterion met"),
    ("COc1ccc(-c2csc(N/N=C(C)/C=C/c3ccc(OC)c(OC)c3)n2)cc1", "Criterion not met"),
]

Here is the next item to consider.
Problem: Does the molecule NNC(=O)c1ccncc1 [ISONIAZID] have recorded pIC50 that is 6 or more?
Solution: Criterion not met

====

Tested on: Mycobacterium tuberculosis
Test: Antitubercular activity against Mycobacterium tuberculosis H37Rv RIF-R1 harboring nrpoB S522L mutant after 5 days
Type: functional, organism-based
assay-readout: log10 IC90 (log10 of the value in nM)
Could you please treat all values as log10 of IC90 in nM?

Value of measured log10 IC90 for the entry `COc1ccc(/C=C/C(C)=N/Nc2nc(-c3c(OC)cccc3OC)cs2)cc1OC` : 4.28

====

Measured log10 of IC50, listed per entry for reference.
System: Mycobacterium tuberculosis
Experiment: Antitubercular activity against Mycobacterium tuberculosis H37Rv RIF-R1 harboring nrpoB S522L mutant after 5 days
Type: functional, organism-based
Please interpret these as log10 of IC50 where IC50 is in µM.

Examples with their reported log10 of IC50 follow.
# compound, value-reported
rows = [
    ("C[C@H]1COc2c(N3CCN(C)CC3)c(F)cc3c(=O)c(C(=O)O)cn1c23.C[C@H]1COc2c(N3CCN(C)CC3)c(F)cc3c(=O)c(C(=O)O)cn1c23.O [LEVOFLOXACIN]", -0.23),
    ("COc1ccc(/C=C/C(C)=N/NC(N)=S)cc1OC", 0.04),
    ("COc1ccc(-c2csc(N/N=C(C)/C=C/c3ccc(OC)c(OC)c3)n2)cc1", 1.04),
    ("COc1ccc(/C=C/C(C)=N/Nc2nc(-c3ccc(N)cc3)cs2)cc1OC", -0.27),
    ("COc1ccc(/C=C/C(C)=N/Nc2nc(-c3ccc(OC)c(OC)c3)cs2)cc1OC", 0.96),
    ("NNC(=O)c1ccncc1 [ISONIAZID]", -0.82),
    ("COc1ccc(/C=C/C(C)=N/Nc2nc(-c3c(OC)cccc3OC)cs2)cc1OC", 0.85),
]

// compound CO[C@H]1/C=C/O[C@@]2(C)Oc3c(C)c(O)c4c(O)c(c(/C=N/N5CCN(C)CC5)c(O)c4c3C2=O)NC(=O)/C(C)=C\C=C\[C@H](C)[C@H](O)[C@@H](C)[C@@H](O)[C@@H](C)[C@H](OC(C)=O)[C@@H]1C [RIFAMPIN] , assay Mycobacterium tuberculosis, log10 of IC50 value: 0.08

====

Here the recorded log10 of MIC is given for each entry.
Tested on: Mycobacterium tuberculosis
Experiment: Antitubercular activity against Mycobacterium tuberculosis H37Rv RIF-R1 harboring nrpoB S522L mutant after 5 days
Type: functional, organism-based
Please keep in mind that the values are log10 of MIC expressed in µM.

# structure-notation, log10 of MIC
rows = [
    ("COc1ccc(/C=C/C(C)=N/Nc2nc(-c3c(OC)cccc3OC)cs2)cc1OC", 1.23),
    ("COc1ccc(/C=C/C(C)=N/Nc2nc(-c3ccc(OC)c(OC)c3)cs2)cc1OC", 1.45),
    ("C[C@H]1COc2c(N3CCN(C)CC3)c(F)cc3c(=O)c(C(=O)O)cn1c23.C[C@H]1COc2c(N3CCN(C)CC3)c(F)cc3c(=O)c(C(=O)O)cn1c23.O", -0.12),
]

Moving on to another molecule below.
Entry `NNC(=O)c1ccncc1` ; log10 of MIC = -0.77

====

Test system: Mycobacterium tuberculosis
Test: Antitubercular activity against Mycobacterium tuberculosis H37Rv RIF-R1 harboring nrpoB S522L mutant after 5 days
Format: functional, organism-based
assay-readout: IC90 (nM)
// return numeric value only (unit: nM, not printed)

# compound, IC90, nM
data = [
    ("COc1ccc(/C=C/C(C)=N/Nc2nc(-c3ccc(N)cc3)cs2)cc1OC", 2600),
    ("CO[C@H]1/C=C/O[C@@]2(C)Oc3c(C)c(O)c4c(O)c(c(/C=N/N5CCN(C)CC5)c(O)c4c3C2=O)NC(=O)/C(C)=C\\C=C\\[C@H](C)[C@H](O)[C@@H](C)[C@@H](O)[C@@H](C)[C@H](OC(C)=O)[C@@H]1C [RIFAMPIN]", 2300),
    ("COc1ccc(/C=C/C(C)=N/NC(N)=S)cc1OC", 4600),
    ("NNC(=O)c1ccncc1 [ISONIAZID]", 210),
    ("C[C@H]1COc2c(N3CCN(C)CC3)c(F)cc3c(=O)c(C(=O)O)cn1c23.C[C@H]1COc2c(N3CCN(C)CC3)c(F)cc3c(=O)c(C(=O)O)cn1c23.O [LEVOFLOXACIN]", 910),
]

Now consider the entry below.
// field: IC90; key: `COc1ccc(/C=C/C(C)=N/Nc2nc(-c3ccc(OC)c(OC)c3)cs2)cc1OC` ; value = 27000

====

Tested on: Mycobacterium tuberculosis
Experiment: Antitubercular activity against Mycobacterium tuberculosis H37Rv RIF-R1 harboring nrpoB S522L mutant after 5 days
Assay type: functional, organism-based
Measured MIC accompanies every entry in the list below.

# structure-notation, value-reported
records = [
    ("COc1ccc(/C=C/C(C)=N/Nc2nc(-c3ccc(N)cc3)cs2)cc1OC", "2.2 µM"),
    ("COc1ccc(-c2csc(N/N=C(C)/C=C/c3ccc(OC)c(OC)c3)n2)cc1", "25 µM"),
]

Lab note: `CO[C@H]1/C=C/O[C@@]2(C)Oc3c(C)c(O)c4c(O)c(c(/C=N/N5CCN(C)CC5)c(O)c4c3C2=O)NC(=O)/C(C)=C\C=C\[C@H](C)[C@H](O)[C@@H](C)[C@@H](O)[C@@H](C)[C@H](OC(C)=O)[C@@H]1C` gave MIC of 2 µM

Value of MIC reported for the molecule `COc1ccc(/C=C/C(C)=N/NC(N)=S)cc1OC` is 4 µM
